Measured pIC50 values are reported for all entries that follow.
# target_or_system: Aldo-keto reductase family 1 member C1 (Homo sapiens)
# Sequence (Q04828 whole entry): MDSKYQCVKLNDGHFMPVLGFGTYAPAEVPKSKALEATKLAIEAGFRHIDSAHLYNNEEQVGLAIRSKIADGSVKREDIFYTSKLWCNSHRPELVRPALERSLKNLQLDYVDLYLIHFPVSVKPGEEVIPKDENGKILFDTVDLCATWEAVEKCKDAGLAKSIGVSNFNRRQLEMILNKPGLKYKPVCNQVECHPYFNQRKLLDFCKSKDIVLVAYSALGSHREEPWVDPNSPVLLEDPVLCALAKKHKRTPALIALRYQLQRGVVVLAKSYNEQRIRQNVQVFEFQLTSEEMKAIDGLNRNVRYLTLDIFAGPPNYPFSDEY
pIC50: −log10 of the molar value.

Known results for compounds:
- compound: "O=C(O)c1cccc(S(=O)(=O)N2CCc3c(cccc3[N+](=O)[O-])C2)c1"
  pIC50: 4.61
- compound: "O=C(O)c1cccc(S(=O)(=O)N2CCc3ccc(Br)cc3C2)c1"
  pIC50: "< 4.52"
- compound: "O=C(O)c1cn(S(=O)(=O)c2ccc(Br)cc2)c2ccccc12"
  pIC50: 6.08
- compound: "O=C(O)c1cccc(S(=O)(=O)NCCc2ccccc2F)c1"
  pIC50: "< 4.52"
- compound: "O=C(c1cccc(S(=O)(=O)N2CCc3ccccc3C2)c1)N1CC2(COC2)C1"
  pIC50: "< 4.52"
- compound: "O=C(O)c1ccccc1Nc1cccc(C(F)(F)F)c1"
  pIC50: 5.58
- compound: "O=C(O)C1CCCN(S(=O)(=O)c2cccc(-c3ccccc3Cl)c2)C1 (racemic)"
  pIC50: "< 4.52"
- compound: "CC(C(=O)O)c1ccc(-c2ccccc2)c(F)c1 (centres undefined)"
  pIC50: "< 4.00"

In plain terms, O=C(O)c1cccc(S(=O)(=O)N2CCc3ccccc3C2)c1 has a documented pIC50 of 4.69

Briefly, pIC50 measured for COc1ccc2c(c1)c(CC(=O)O)c(C)n2C(=O)c1ccc(Cl)cc1 : < 4.00

// COc1ccc(CCNS(=O)(=O)c2cccc(C(=O)O)c2)cc1 : pIC50 value = < 4.52

GET /value?item= N#Cc1ccc2c(c1)CN(S(=O)(=O)c1cccc(C(=O)O)c1)CC2 &field=pIC50 returns < 4.52

Documented pIC50 of O=C1CCCN1c1ccc(S(=O)(=O)N2CCc3ccccc3C2)cc1 : < 4.52

Query COc1ccc2cc([C@H](C)C(=O)O)ccc2c1 yields pIC50 of < 4.00

// pIC50 lookup, compound = CC1Cc2ccccc2CN1S(=O)(=O)c1cccc(C(=O)O)c1 (centres undefined) , result: < 4.52

Reference source for all entries: ChEMBL document CHEMBL2169839
